Values compiled from patent US20230105029A1.

Field: pEC50. Provide a value for each of the binders that follow.
assayed target: T1, marmoset monkey IL4Rα-his protein (marmoset monkey)
T1 construct: Custom made by Sino biological; no cleavage site stated; also called cal-IL4Rα-his; Cal-IL4Rα
T1 chain: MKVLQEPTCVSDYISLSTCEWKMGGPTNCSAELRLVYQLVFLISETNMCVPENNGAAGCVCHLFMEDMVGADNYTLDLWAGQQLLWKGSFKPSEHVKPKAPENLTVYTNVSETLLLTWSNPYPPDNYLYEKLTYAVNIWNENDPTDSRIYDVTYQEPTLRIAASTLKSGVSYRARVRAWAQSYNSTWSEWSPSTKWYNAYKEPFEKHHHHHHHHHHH
experiment description: indirect ELISA on coated cal-IL4Rα-his
Worth noting: pEC50 values are minus log10 of concentrations stated in mol/L.

Sample huB8G11F2B7G5E8-V4 (antibody, human IgG4 S228P, kappa, V domains shown, Humanized, human IgG4/kappa; also called huBSG11F2B7G5E8-V4) VH: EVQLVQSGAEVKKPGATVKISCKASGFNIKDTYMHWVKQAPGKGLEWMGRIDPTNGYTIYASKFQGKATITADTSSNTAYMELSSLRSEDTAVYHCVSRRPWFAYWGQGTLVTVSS VL: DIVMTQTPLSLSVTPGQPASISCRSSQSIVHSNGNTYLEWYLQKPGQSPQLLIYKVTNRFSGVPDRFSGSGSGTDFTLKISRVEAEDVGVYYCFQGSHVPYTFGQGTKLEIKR — what was its pEC50?
9.14

Do the same for mouse antibody B8G11F2B7G5E8 (antibody, V domains shown, Mouse hybridoma mAb; also called Mouse B8G11F2B7G5E8; mAb B8G11F2B7G5E8) VH: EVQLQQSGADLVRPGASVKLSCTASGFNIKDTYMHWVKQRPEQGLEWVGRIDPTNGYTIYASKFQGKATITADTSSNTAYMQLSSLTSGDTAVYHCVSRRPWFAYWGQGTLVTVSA VL: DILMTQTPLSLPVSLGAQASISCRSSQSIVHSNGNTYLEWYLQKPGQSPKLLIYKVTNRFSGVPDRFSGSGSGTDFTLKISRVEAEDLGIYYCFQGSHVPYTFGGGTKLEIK please
9.06

Now give it for huB8G11F2B7G5E8-V14 (antibody, human IgG4 S228P, kappa, V domains shown, Humanized, human IgG4/kappa; also called huBSG11F2B7G5E8-V14) VH: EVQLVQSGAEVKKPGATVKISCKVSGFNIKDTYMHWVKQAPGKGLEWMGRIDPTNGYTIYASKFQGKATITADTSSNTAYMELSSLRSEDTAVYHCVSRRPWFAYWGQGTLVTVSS VL: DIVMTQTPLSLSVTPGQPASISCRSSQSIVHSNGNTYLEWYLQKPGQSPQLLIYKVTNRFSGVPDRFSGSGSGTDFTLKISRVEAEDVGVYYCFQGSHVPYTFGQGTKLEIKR too.
8.98

Also, huB8G11F2B7G5E8-V2 (antibody, human IgG4 S228P, kappa, V domains shown, Humanized, human IgG4/kappa; also called huBSG11F2B7G5E8-V2) VH: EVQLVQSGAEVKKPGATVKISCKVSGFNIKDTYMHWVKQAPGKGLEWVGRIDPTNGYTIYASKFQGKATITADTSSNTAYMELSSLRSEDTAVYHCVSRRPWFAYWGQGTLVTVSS VL: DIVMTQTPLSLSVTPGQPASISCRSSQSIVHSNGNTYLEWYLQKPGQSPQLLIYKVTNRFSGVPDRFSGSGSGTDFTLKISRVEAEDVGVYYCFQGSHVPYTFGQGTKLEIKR please.
9.10
